Entries annotated with measured % Change Compared to pH 7.4 + Calcium
measurement-target: T1, recombinant, soluble human ASGR-1 (human, UniProt P07306 62-291)
T1 construct: biotinylated in the binning assay; also called soluble huASGR-1; Soluble ASGR-1 (Amgen)
T1 sequence: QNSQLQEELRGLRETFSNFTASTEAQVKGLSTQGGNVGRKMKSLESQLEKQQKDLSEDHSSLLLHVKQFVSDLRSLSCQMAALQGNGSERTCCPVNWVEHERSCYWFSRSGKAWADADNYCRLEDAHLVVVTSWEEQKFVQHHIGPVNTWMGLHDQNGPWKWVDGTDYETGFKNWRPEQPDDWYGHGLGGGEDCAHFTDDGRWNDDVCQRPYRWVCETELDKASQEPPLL
experiment-description: Octet BLI dissociation, pH 7.4 minus calcium
Quick note: give the figure in %, leave out the unit.

// below: answered binders
INSERT INTO assay_data (binder, measurement_name, recorded_measurement) VALUES
  ('60G2 (antibody, V domains shown, hybridoma mAb) VH: QVQLVESGGGVVQPGRSLRLSCAASGFTFSSYGMHWVRQAPGKGLEWVAVIWYDGSNKYYADSVKGRFTISRDNSKNTLYLQMNSLRAEDTAVYYCARRYSRSWTGGMDVWGQGTTVTVSS VL: DIVMTQTPLSLSVTPGQSASISCKSSQSLLHSEGKTYLYWYLQKPGQPPQLLIYEVSNRISGVPDRFSGSGSGTDFTLKISRVEAEDVGVYYCMQSIQLPLTFGGGTKVEIK', '% Change Compared to pH 7.4 + Calcium', 36),
  ('194C1 (antibody, V domains shown, hybridoma mAb) VH: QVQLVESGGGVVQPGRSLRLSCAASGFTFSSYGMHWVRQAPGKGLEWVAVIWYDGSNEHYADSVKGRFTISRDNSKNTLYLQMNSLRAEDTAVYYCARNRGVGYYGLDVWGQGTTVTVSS VL: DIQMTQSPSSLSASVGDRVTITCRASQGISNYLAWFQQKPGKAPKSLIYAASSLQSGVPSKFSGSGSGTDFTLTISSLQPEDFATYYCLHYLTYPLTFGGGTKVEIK', '% Change Compared to pH 7.4 + Calcium', -7);

# context switch: different binder, same % Change Compared to pH 7.4 + Calcium
For the binder 25A4 (antibody, V domains shown, hybridoma mAb) VH: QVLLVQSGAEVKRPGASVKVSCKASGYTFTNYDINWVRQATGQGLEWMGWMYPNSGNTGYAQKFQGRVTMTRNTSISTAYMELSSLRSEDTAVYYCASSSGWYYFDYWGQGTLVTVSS VL: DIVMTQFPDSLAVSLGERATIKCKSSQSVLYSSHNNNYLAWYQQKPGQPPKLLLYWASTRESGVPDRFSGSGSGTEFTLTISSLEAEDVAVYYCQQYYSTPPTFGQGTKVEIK , give its reported % Change Compared to pH 7.4 + Calcium.
2
